Values were extracted from ChEMBL document CHEMBL4411299.

Tested on: MDA-MB-231
Method: Antiproliferative activity against human MDA-MB-231 cells after 48 hrs by MTT assay
Format: functional
Experimental parameters: MDA-MB-231, 48 h
Reported metric: GI50 (µM)

| Molecule | Reported metric | Recorded number |
| --- | --- | --- |
| COC(=O)N1N=C(c2ccccc2)CC1c1ccc(OC)c(OC)c1 (stereo not drawn) | GI50 | 8.94 |
| CCCOC(=O)N1N=C(c2cccc(O)c2)CC1c1cc(OC)c(OC)c(OC)c1 (stereo not drawn) | GI50 | 10 |
| CCOc1cccc(C2=NN(C(=O)OC)C(c3cc(OC)c(OC)c(OC)c3)C2)c1 (stereo not drawn) | GI50 | 0.19 |
| COC(=O)N1N=C(c2ccccc2)CC1c1ccc(OC)c(O)c1 (stereo not drawn) | GI50 | 14.5 |
| COC(=O)N1N=C(c2ccccc2)CC1c1cc(OC)c(OC)c(OC)c1 (stereo not drawn) | GI50 | 1.08 |

a = COC(=O)N1N=C(c2ccc(OC)c(OC)c2)CC1c1cc(OC)c(OC)c(OC)c1 (stereo not drawn)
b = COC(=O)N1N=C(c2ccc(OC)cc2)CC1c1cc(OC)c(OC)c(OC)c1 (stereo not drawn)
Query: Endpoint returns the identifier whose GI50 is numerically larger, either a or b . Refer to your chosen item by its label in the answer.
Result: a

* * *

Method: Clearance in female Sprague-Dawley rat at 1.5 mg/kg, iv administered as single dose by LC-MS/MS analysis
Type: ADME, organism-based
Experimental parameters: in vivo
Reported metric: clearance (mL/min/kg)
Write down the numeric answer in mL/min/kg and omit the unit.

Query: Which clearance value belongs to COC(=O)N1N=C(c2cccc(C)c2)CC1c1cc(OC)c(OC)c(OC)c1 (stereo unspecified) ?
Result: 79.7

* * *

Method: MRT (0 to t) in Sprague-Dawley rat at 1.5 mg/kg, iv administered as single dose by LC-MS/MS analysis
Format: ADME, organism-based
Experimental parameters: in vivo
Reported metric: MRT last (min)
Write down the numeric answer in min and omit the unit.

Query: Which MRT last value belongs to COC(=O)N1N=C(c2cccc(C)c2)CC1c1cc(OC)c(OC)c(OC)c1 (stereo unspecified) ?
Result: 54.6

* * *

Method: AUC (0 to infinity) in female Sprague-Dawley rat at 1.5 mg/kg, iv administered as single dose by LC-MS/MS analysis
Format: ADME, organism-based
Parameters: dose 1.5 mg/kg, time infinity, route intravenous
Experimental parameters: in vivo
Reported metric: AUC(0-inf) (ng·h/mL)
Write down the numeric answer in ng·h/mL and omit the unit.

Query: Which AUC(0-inf) value belongs to COC(=O)N1N=C(c2cccc(C)c2)CC1c1cc(OC)c(OC)c(OC)c1 (stereo unspecified) ?
Result: 336

* * *

Method: Half life in rat liver microsomes at 5 uM in presence of NADPH regenerating system by LC-MS/MS analysis
Format: ADME, Microsome
Reported metric: half-life at 5 µM (min)
Write down the numeric answer in min and omit the unit.

Query: Which half-life at 5 µM value belongs to COC(=O)N1N=C(c2cccc(C)c2)CC1c1cc(OC)c(OC)c(OC)c1 (stereo unspecified) ?
Result: 37

* * *

Test system: MDA-MB-231
Method: Antiproliferative activity against human MDA-MB-231 cells after 48 hrs by MTT assay
Type: functional
Experimental parameters: MDA-MB-231, 48 h
Reported metric: GI50 (µM)

| Compound | Reported metric | Readout units | Recorded number |
| --- | --- | --- | --- |
| COC(=O)N1N=C(c2cccc(OC)c2)CC1c1cc(OC)c(OC)c(OC)c1 (stereo unspecified) | GI50 | µM | 0.35 |

1 = CCOC(=O)N1N=C(c2ccc(OC)cc2)CC1c1cc(OC)c(OC)c(OC)c1 (stereo unspecified)
2 = COC(=O)N1N=C(c2cc(OC)c(OC)c(OC)c2)CC1c1cc(OC)c(OC)c(OC)c1 (stereo unspecified)
3 = CCCOC(=O)N1N=C(c2ccc(OC)cc2)CC1c1cc(OC)c(OC)c(OC)c1 (stereo unspecified)
4 = COC(=O)N1N=C(c2cccc(O)c2)CC1c1cc(OC)c(OC)c(OC)c1 (stereo unspecified)
5 = CCOC(=O)N1N=C(c2cccc(O)c2)CC1c1cc(OC)c(OC)c(OC)c1 (stereo unspecified)
Query: Please rank these compounds by GI50 in descending order. Give the order by naming the labels one after another as requested.
Result: 3, 2, 5, 1, 4

1 = COC(=O)N1N=C(c2ccccc2)CC1c1c(OC)cc(OC)cc1OC (stereo unspecified)
2 = COC(=O)N1N=C(c2cccc(Cl)c2)CC1c1cc(OC)c(OC)c(OC)c1 (stereo unspecified)
Query: Returns the identifier with the smallest measured GI50 among 1 and 2 . Refer to your chosen item by its label in the answer.
Result: 2

1 = CCCOC(=O)N1N=C(c2cccc(OC)c2)CC1c1cc(OC)c(OC)c(OC)c1 (stereo unspecified)
2 = CCOC(=O)N1N=C(c2ccccc2)CC1c1cc(OC)c(OC)c(OC)c1 (stereo unspecified)
3 = COC(=O)N1N=C(c2cccc(C)c2)CC1c1cc(OC)c(OC)c(OC)c1 (stereo unspecified)
Query: Please rank these compounds by GI50 in descending order. Give the order by naming the labels one after another as requested.
Result: 1, 2, 3
(1: 12.5 µM, 2: 5.61 µM, 3: 0.14 µM)

P = CCCOC(=O)N1N=C(c2ccccc2)CC1c1cc(OC)c(OC)c(OC)c1 (stereo unspecified)
Q = CCOC(=O)N1N=C(c2cccc(OC)c2)CC1c1cc(OC)c(OC)c(OC)c1 (stereo unspecified)
Query: Returns the identifier with the smallest measured GI50 among P and Q . Refer to your chosen item by its label in the answer.
Result: Q

* * *

Tested on: HT-29
Method: Antiproliferative activity against human HT-29 cells after 48 hrs by MTT assay
Assay type: functional
Experimental parameters: HT-29, 48 h
Reported metric: GI50 (µM)

| Compound | Recorded number |
| --- | --- |
| CCCOC(=O)N1N=C(c2cccc(O)c2)CC1c1cc(OC)c(OC)c(OC)c1 (stereo not given) | 15.2 |
| COC(=O)N1N=C(c2ccccc2)CC1c1cc(OC)c(OC)c(OC)c1 (stereo not given) | 6.26 |
| CCOC(=O)N1N=C(c2ccccc2)CC1c1cc(OC)c(OC)c(OC)c1 (stereo not given) | 8.92 |
| COC(=O)N1N=C(c2ccc(OC)cc2)CC1c1cc(OC)c(OC)c(OC)c1 (stereo not given) | 2.55 |
| COC(=O)N1N=C(c2ccccc2)CC1c1ccc(OC)c(OC)c1 (stereo not given) | 10.7 |

1 = COC(=O)N1N=C(c2cccc(Cl)c2)CC1c1cc(OC)c(OC)c(OC)c1 (stereo not given)
2 = CCCOC(=O)N1N=C(c2ccc(OC)cc2)CC1c1cc(OC)c(OC)c(OC)c1 (stereo not given)
3 = COC(=O)N1N=C(c2cccc(OC)c2)CC1c1cc(OC)c(OC)c(OC)c1 (stereo not given)
4 = COC(=O)N1N=C(c2cc(OC)c(OC)c(OC)c2)CC1c1cc(OC)c(OC)c(OC)c1 (stereo not given)
Query: Form: Sort by [GI50] Order [ ascending ] Give the order by naming the labels one after another as requested.
Result: 1, 3, 4, 2

A = COC(=O)N1N=C(c2ccccc2)CC1c1ccc(OC)c(O)c1 (stereo not given)
B = COC(=O)N1N=C(c2ccc(O)cc2)CC1c1cc(OC)c(OC)c(OC)c1 (stereo not given)
Query: Endpoint returns the identifier whose GI50 is numerically larger, either A or B . Refer to your chosen item by its label in the answer.
Result: B
(B: 6.77 µM, A: 3.5 µM)

a = CCOc1cccc(C2=NN(C(=O)OC)C(c3cc(OC)c(OC)c(OC)c3)C2)c1 (stereo not given)
b = COC(=O)N1N=C(c2cccc(C)c2)CC1c1cc(OC)c(OC)c(OC)c1 (stereo not given)
Query: Returns the identifier with the smallest measured GI50 among a and b . Refer to your chosen item by its label in the answer.
Result: b
(b: 0.1 µM, a: 4.45 µM)

* * *

Tested on: A549
Method: Antiproliferative activity against human A549 cells after 48 hrs by MTT assay
Format: functional
Experimental parameters: A549, 48 h
Reported metric: GI50 (µM)

| Compound | GI50 / µM |
| --- | --- |
| CCOC(=O)N1N=C(c2cccc(O)c2)CC1c1cc(OC)c(OC)c(OC)c1 (stereo not given) | 5.12 |

a = COC(=O)N1N=C(c2ccc(O)cc2)CC1c1cc(OC)c(OC)c(OC)c1 (stereo not given)
b = COC(=O)N1N=C(c2ccccc2)CC1c1cc(OC)c(OC)c(OC)c1 (stereo not given)
Query: Endpoint returns the identifier whose GI50 is numerically larger, either a or b . Refer to your chosen item by its label in the answer.
Result: a

P = COC(=O)N1N=C(c2ccccc2)CC1c1cc(OC)c(OC)cc1OC (stereo not given)
Q = COC(=O)N1N=C(c2cccc(C)c2)CC1c1cc(OC)c(OC)c(OC)c1 (stereo not given)
Query: Returns the identifier with the smallest measured GI50 among P and Q . Refer to your chosen item by its label in the answer.
Result: Q
(Q: 0.3 µM, P: 5.32 µM)
